Entries annotated with measured TGI
Tested on: HOP-92 NSCLC
Experiment: NCI tumour cell line growth inhibition, 48 h

Compound	TGI
Cc1ccc2oc(=O)cc(/C(=C3/C=CC=N3)c3ccc[nH]3)c2c1	2.57 µM
CSCC[C@@H]1C(=O)N(C)[C@H](C(C)(C)C)N1C(=O)c1ccccc1	> 100 µM
S=C(N/N=C(\c1ccccc1)c1ccccn1)NC1CCCCC1	> 100 µM
CC(=O)OC1CCC2(C)C(CCC3C2CC(=O)C2(C)C3CC(N3CC3)C2C(C)=O)C1 (stereo unspecified)	43.1 µM
Cc1nc2c(c(N3CCCc4ccccc43)n1)CCC2	> 100 µM
COc1cc(C2CC(c3cccc(Nc4ccnc5cc(Cl)ccc45)c3)=NN2c2ccc(Cl)cc2)cc(OC)c1OC (stereo unspecified)	74.8 µM
N#CC1(C#N)NC(c2ccccc2)C(C#N)(C#N)NC1c1ccccc1 (stereo unspecified)	> 100 µM
CCCCCOCC(O)CO (stereo unspecified)	> 100 µM
COc1cccc(/C=N/NC(=O)CSCC(=O)N/N=C/c2cccc(OC)c2OC)c1OC	> 100 µM
COc1cc(C(=O)O[C@H](C(=O)NCCCNC(=O)[C@@H](OC(=O)c2cc(OC)cc3c(C)cccc23)[C@]2(C)CO2)[C@]2(C)CO2)c2cccc(C)c2c1	0.15 µM
CCOC(=O)C(=O)Nc1nc2c(OCC)cccc2s1	> 100 µM
NCCc1ccc(S(=O)(=O)F)cc1	96.2 µM
COc1ccc(/C(=N\NC(=O)NN)C(c2ccc(OC)cc2)C2(O)C(=O)Nc3c(Cl)cc(Cl)cc32)cc1 (stereo unspecified)	> 100 µM
COc1cc2c(c(OC)c1OC)-c1ccc(O)cc1[C@@H](NC(C)=O)CC2	> 100 µM
CC(=O)OCC1OC(n2ccc(=O)[nH]c2=O)C(OC(C)=O)C(OC(C)=O)C1OC(C)=O (stereo unspecified)	> 100 µM
COC(=O)C1CCN(C(=O)OC(C)(C)C)CC1	> 100 µM
COC(=O)/C=C\C(C#N)(C#N)N=Cc1cccc(OC)c1	7.29 µM
COc1cc2c(c(OC)c1OC)C(=O)[C@@H]1[C@H]2N1C(=O)NCCCl	> 100 µM
O=C(/C=C/c1ccc(Cl)cc1)c1ccccc(=O)c1O	17 µM
Oc1ccc(Nc2ccc3ccccc3c2)cc1	32.6 µM
C[C@]12CCC(=O)C(OC(=O)c3ccc([N+](=O)[O-])cc3)=C1CCC2=O	> 100 µM
